Values were extracted from the supplement of paper PMC10567573.

B1: POMT2 (parent)
chain: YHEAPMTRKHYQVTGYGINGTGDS

# Variants of: B1
# TEST DESCRIPTION: protein stability index of a GFP-peptide fusion (GPS, HEK-293T) (PSI 1-6); higher = more stable;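 further: lentivirally expressed fusions sorted by FACS into six bins by GFP to DsRed ratio, PSI derived from sequencing read proportions per bin multiplied by bin number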
# SETUP CONDITIONS: c terminus: a fixed tail appended
Class rule met: protein stability index at least 2. Class rule not met: protein stability index below 2.

Worked set:
I18Q; rule met
Q12K; rule met
K9T; rule met
G20D; rule met
N19F; rule met

## Input Please check the record S24Y and state if its protein stability index is at or above 2.
## Output rule met

## Input Evaluate G20T : protein stability index at minimum 2?
## Output rule met

## Input Given the entry H2K , answer whether its protein stability index meets or surpasses 2.
## Output rule met

## Input Is protein stability index at least 2? Consider Q12G
## Output rule met

## Input Say whether G22Q shows protein stability index of 2 or more.
## Output rule met

## Input Does the variant M6F have recorded protein stability index that is 2 or more?
## Output rule not met

## Input Could you verify whether the entry G20K shows protein stability index of no less than 2?
## Output rule met
